Reference for the values: the supplement of paper PMC3334620

Target: Sut1 (UniProt P53032)
Sequence: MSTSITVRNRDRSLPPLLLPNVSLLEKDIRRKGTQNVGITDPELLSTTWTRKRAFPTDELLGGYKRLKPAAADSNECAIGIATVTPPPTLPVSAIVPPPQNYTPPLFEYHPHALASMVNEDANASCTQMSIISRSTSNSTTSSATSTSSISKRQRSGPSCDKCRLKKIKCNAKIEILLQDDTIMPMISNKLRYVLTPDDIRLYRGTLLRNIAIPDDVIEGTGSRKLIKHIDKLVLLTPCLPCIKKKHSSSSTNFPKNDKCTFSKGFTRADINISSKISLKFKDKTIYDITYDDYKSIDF
Experiment: PBM E-score (8-mer binding enrichment) (E-score (-0.5 to 0.5)); higher = stronger / more preferred TF binding
Details: protein concentration: 200 nM; construct: GST-full length
Whole data set: some 33,000 sequences, median “E-score (-0.5 to 0.5)” near -0.017, cut for the highest 2% near 0.3. Shown is part of a subset that was picked to be rich in the highest values.
RECORDED ENDPOINT: PBM E-score

Q. What PBM E-score value was documented for this sequence, GAAACTAA ?
A. 0.00617

Q. What PBM E-score value was documented for this sequence, ATAAACTG ?
A. 0.047

Q. What PBM E-score value was documented for this sequence, CTAACTGA ?
A. 0.0767

Q. What PBM E-score value was documented for this sequence, TGATATAA ?
A. 0.222

Q. What PBM E-score value was documented for this sequence, CCTTCGCA ?
A. -0.178

Q. What PBM E-score value was documented for this sequence, ACAGATAT ?
A. 0.0244

Q. What PBM E-score value was documented for this sequence, AGCGGAGG ?
A. -0.201

Q. What PBM E-score value was documented for this sequence, GACGCAGC ?
A. -0.199

Q. What PBM E-score value was documented for this sequence, CTATATAA ?
A. 0.158

Q. What PBM E-score value was documented for this sequence, ATAAACTC ?
A. 0.315

Q. What PBM E-score value was documented for this sequence, GCTTCGCA ?
A. -0.197

Q. What PBM E-score value was documented for this sequence, TCCGAGCA ?
A. 0.307

Q. What PBM E-score value was documented for this sequence, CTAAACTC ?
A. 0.225

Q. What PBM E-score value was documented for this sequence, CAGCCCGA ?
A. -0.211

Q. What PBM E-score value was documented for this sequence, GTTTCGTA ?
A. 0.0481

Q. What PBM E-score value was documented for this sequence, GTTTCGAA ?
A. 0.0889

Q. What PBM E-score value was documented for this sequence, CGCGGAGA ?
A. 0.387

Q. What PBM E-score value was documented for this sequence, TCGTTCCA ?
A. -0.0676

Q. What PBM E-score value was documented for this sequence, AAATTGCA ?
A. -0.0262

Q. What PBM E-score value was documented for this sequence, ATACTGGA ?
A. 0.122

Q. What PBM E-score value was documented for this sequence, ACCGACAA ?
A. 0.0505

Q. What PBM E-score value was documented for this sequence, CCGCTCAA ?
A. -0.078

Q. What PBM E-score value was documented for this sequence, GCTTCGTA ?
A. 0.0454

Q. What PBM E-score value was documented for this sequence, ATAACTCG ?
A. 0.149

Q. What PBM E-score value was documented for this sequence, AAACCCCG ?
A. 0.441

Q. What PBM E-score value was documented for this sequence, CCTTCGGA ?
A. 0.32

Q. What PBM E-score value was documented for this sequence, AGCGGAGA ?
A. 0.325

Q. What PBM E-score value was documented for this sequence, GGAACTCC ?
A. 0.356

Q. What PBM E-score value was documented for this sequence, TCATATAA ?
A. 0.121

Q. What PBM E-score value was documented for this sequence, CAACCCCC ?
A. -0.266

Q. What PBM E-score value was documented for this sequence, CCCGAGGA ?
A. -0.118

Q. What PBM E-score value was documented for this sequence, TACGCGTA ?
A. -0.0808

Q. What PBM E-score value was documented for this sequence, AGTCCCAG ?
A. -0.199

Q. What PBM E-score value was documented for this sequence, AGAACAGC ?
A. -0.0298

Q. What PBM E-score value was documented for this sequence, CAACCCCG ?
A. 0.355

Q. What PBM E-score value was documented for this sequence, CGTTATAA ?
A. 0.135

Q. What PBM E-score value was documented for this sequence, GCCGATAA ?
A. 0.00363

Q. What PBM E-score value was documented for this sequence, CCTTCGGC ?
A. -0.233

Q. What PBM E-score value was documented for this sequence, AACCCCCG ?
A. -0.193

Q. What PBM E-score value was documented for this sequence, CTAACTCC ?
A. 0.221

Q. What PBM E-score value was documented for this sequence, AGAACTCG ?
A. -0.03

Q. What PBM E-score value was documented for this sequence, GGAACTCA ?
A. -0.0534

Q. What PBM E-score value was documented for this sequence, CTGAACAC ?
A. -0.0309

Q. What PBM E-score value was documented for this sequence, CAAACTAA ?
A. 0.276

Q. What PBM E-score value was documented for this sequence, GCCGAGCA ?
A. -0.305

Q. What PBM E-score value was documented for this sequence, TCCGAGGA ?
A. 0.34
